System: COLO 205 colon
assay-info: NCI-60 one-dose screen, 48 h
experimental-setup: 10 µM unless noted
Procedure: Cells are grown in 96 well plates and exposed to the test compound for 48 hours. Compounds are tested at a single concentration, which is 10^-5 M for most compounds. The reported endpoint is percent growth (GI% or GIPRCNT), where numbers from 0 - 100% represent growth inhibition, and numbers from -100% - 0 represent cell death. For example, a value of 40 represents 60% growth inhibition. A value of 0 means no net growth occurred over the course of the experiment. […]
This is part of a sample that, as a whole, favours compounds with a hit. Of some 83,000 tested, about 20% had one in any assay. Active and inactive are the calls of the source. How the source made its calls: active means growth percent below 10; inactive means the rest.
Just give me one of these, please: active, inactive

Below, 2 compounds whose answers are already recorded.
In [3]: df
Out[3]:
                                   compound   tested_system  class_name
0         Nc1ccc(-c2ccncc2)cc1NC(=O)N1CCCC1  COLO 205 colon    inactive
1  CC(C)CCC[C@@H](C)[C@H]1CC[C@H]2[C@@H]3CC=C4c5sc(Nc6cc(C(F)(F)F)cc(C(F)(F)F)c6)nc5CC[C@]4(C)[C@H]3CC[C@]12C  COLO 205 colon    inactive

In: Given C#Cc1cccc(Nc2ncnc3cc(NC(=O)CCl)ccc23)c1 , state the outcome it received in this test.
Out: active

In: Now the compound S=c1ccnc[nH]1
Out: inactive

In: Now the compound CCOC(=O)C(CCN(C)C)c1ccccc1 (stereo not given)
Out: inactive

In: Now the compound C=C[C@@]1(C)CC(=O)[C@@H](C(C)(C)c2cn(C)c3ccc(Br)cc23)C[C@@H]1O[Si](C)(C)C(C)(C)C
Out: inactive

In: Now the compound COc1ccc(C/C(C)=C(\c2ccc(Cl)cc2)c2ccc(OCCN3CCCC3)cc2)cc1
Out: inactive

In: Now the compound O=C1CCC(C(=O)N/N=C/c2cc(F)ccc2F)N1 (stereo not given)
Out: inactive

In: Now the compound Cc1c2cnccc2c(C)c2c1c1cc(CO)ccc1n2C
Out: active

In: Now the compound N#Cc1c(-c2ccccc2)cc(-c2ccccc2)n(CCCCC(=O)NO)c1=O
Out: inactive

In: Now the compound O=C(NN1C(=O)CSC1c1cccc([N+](=O)[O-])c1)c1ccc(NC(=O)c2ccccn2)cc1 (stereo not given)
Out: inactive

In: Now the compound COc1cc2c(cc1-c1c(C)noc1C)ncc1nc(CN3CCOCC3)n([C@H](C)COC(F)F)c12
Out: inactive

In: Now the compound Nc1ccc(Br)cc1C(F)(F)F
Out: inactive

In: Now the compound CC(=O)O[C@H]1CC[C@]2(C)[C@H]3CC=C4[C@@H]5CC(C)(C)CC[C@]5(C(=O)N5CCN(CCC#N)CC5)CC[C@@]4(C)[C@]3(C)CC[C@H]2C1(C)C
Out: inactive

In: Now the compound COc1cc(C=Nc2oc(-c3ccccc3)c(-c3ccccc3)c2C#N)cc(CN2CCCC2)c1O
Out: inactive

In: Now the compound O=C(Cn1nc(-c2cccc3ccccc23)ccc1=O)NCc1cccc(Cl)c1
Out: inactive

In: Now the compound COc1cc2c(c(OC)c1OC)CCC(c1cccc(C(=O)Nc3ccc(Br)cc3)c1)O2 (stereo not given)
Out: inactive

In: Now the compound N#Cc1nn(-c2cc(=O)[nH]c3ccc(Br)cc23)c(N)c1C#N
Out: inactive

In: Now the compound Cc1ccc2cnc(N)c(C#Cc3cc(C(=O)Nc4ccc(CN5CCN(C)CC5)c(C(F)(F)F)c4)cnc3C)c2c1
Out: active

In: Now the compound C=CCN=c1sc(-c2ccc3ccccc3c2)cn1NC(=O)c1cc2ccc1CCc1ccc(cc1)CC2
Out: inactive
